Method notes: gradient 5% acetonitrile 3 min, to 50% in 2 min, to 85% in 15 min, held 3 min, 100 µL/min
Run parameters: column: Zorbax Extend-C18 2.1 x 50 mm; eluents: water / acetonitrile, 0.1% formic acid
Please map values of RP-LC retention time to classes as shown: lower bin: < 800 s; middle bin: ≥ 800 s and < 1000 s; upper bin: ≥ 1000 s

{"columns": ["Compound", "Classification"],
 "data": [
  ["Cc1nc(CC(=O)Nc2ccc(F)c(F)c2)cs1", "lower bin"],
  ["COc1ccc2c(CCNc3nc(-c4ccc(C5CCCCC5)cc4)cs3)c[nH]c2c1", "upper bin"],
  ["CCn1ncc(NC(=O)COc2ccc(C)cc2)c(N2CCOCC2)c1=O", "lower bin"],
  ["Cc1ccc(C)c(NC(=O)c2cc(C)nn2-c2ccccc2)c1", "middle bin"],
  ["CN1c2cc(C(=O)NCc3ccc(F)cc3Cl)ccc2C(=O)N2CCCCC21 (stereo not given)", "middle bin"],
  ["CCc1ccccc1NS(=O)(=O)c1cc(-c2cc(C(F)(F)F)on2)sc1C", "upper bin"],
  ["COc1ccc(Cl)cc1S(=O)(=O)N1CCC(c2cc3n(n2)CCCNC3=O)CC1", "lower bin"],
  ["CCn1cc(C2=CCN(C(=O)Nc3ccc(OC)c(F)c3)CC2)c2cccnc21", "middle bin"],
  ["COC(=O)c1sccc1NC(=O)N1CCCC1c1nc(-c2ccccc2)no1 (stereo not given)", "upper bin"]
]}

----------
Catalogue of RP-LC retention time readings, one per entry.
Method notes: gradient 5% acetonitrile 3 min, to 50% in 2 min, to 85% in 15 min, held 3 min, 100 µL/min
Run parameters: column: Zorbax Extend-C18 2.1 x 50 mm; eluents: water / acetonitrile, 0.1% formic acid

{"columns": ["Compound", "Unit", "RP-LC retention time"],
 "data": [
  ["COc1ccccc1N1CCN(c2cc(SCC(=O)Nc3cccc(Cl)c3)ncn2)CC1", "s", 1030],
  ["CC(=O)Nc1ccc(C2=NN(C(C)=O)C(c3ccc4c(c3)OCO4)C2)cc1 (centres undefined)", "s", 666],
  ["COc1ccc(OC)c2[nH]c(C(=O)N3CCCC3)cc12", "s", 823],
  ["Cc1cccc(N2CCN(c3ccc4cc(S(=O)(=O)N5CCC(C)CC5)ccc4n3)CC2C)c1 (centres undefined)", "s", 1200],
  ["COc1ccc(NC(=O)Nc2ccc(-c3cn4ccc(C)nc4n3)cc2)cc1", "s", 626],
  ["COc1ccc(-c2ncc3c(n2)CCN(S(=O)(=O)c2cccc(Cl)c2C)C3)cc1", "s", 1180],
  ["CC(=O)c1cc2c(cc1NC(=O)c1ccc(COc3ccccc3)o1)OCO2", "s", 1080],
  ["O=C(NCc1ccccc1)Nc1cccn2ncnc12", "s", 702],
  ["Cc1ccn2cc(C(=O)N3CCN(c4ccccc4Cl)CC3)nc2c1", "s", 722]
]}

----------
Method notes: gradient 5% acetonitrile 3 min, to 50% in 2 min, to 85% in 15 min, held 3 min, 100 µL/min
Run parameters: column: Zorbax Extend-C18 2.1 x 50 mm; eluents: water / acetonitrile, 0.1% formic acid
Please map values of RP-LC retention time to classes as shown: category 1 = under 600 s, category 2 = from 600 s up to 900 s, category 3 = 900 s and over

{"columns": ["Compound", "Classification"],
 "data": [
  ["COc1cccc(-n2nnc(-c3nsc(Nc4ccccc4)n3)c2C)c1", "category 3"],
  ["COc1ccc(OCc2noc(CNC(=O)c3ccccc3Cl)n2)cc1", "category 2"],
  ["CCCCCc1cc(O)c2c(c1)OC(C)(C)[C@@H]1CCC(C(=O)O)=CC21 (some centres undefined)", "category 3"],
  ["Cc1cc(NC(=O)NCCn2nnc3cc(C(=O)N(C)C)ccc32)ccc1Br", "category 2"],
  ["O=C(CN1CCN(C(=O)c2ccco2)CC1)Nc1cc(Cl)ccc1Cl", "category 2"],
  ["CCCN1CCN(C(=O)Cn2nc(C)c3sc(CC)nc3c2=O)CC1", "category 1"]
]}

----------
Method notes: gradient 5% acetonitrile 3 min, to 50% in 2 min, to 85% in 15 min, held 3 min, 100 µL/min
Run parameters: column: Zorbax Extend-C18 2.1 x 50 mm; eluents: water / acetonitrile, 0.1% formic acid
Reported endpoint: RP-LC retention time (s)

{"columns": ["Compound", "Reported endpoint", "Quantitative readout"],
 "data": [
  ["COc1ccc(Cc2nc3ccc(C(=O)NCc4ccc(C)o4)cc3o2)cc1", "RP-LC retention time", 918],
  ["CC(=O)N1CCc2ccccc2C1C(=O)NCc1ccc(Br)cc1 (stereo not given)", "RP-LC retention time", 835],
  ["COc1ccc(NS(=O)(=O)c2cc(-c3cc(C(F)(F)F)[nH]n3)sc2C)cc1Cl", "RP-LC retention time", 995],
  ["O=C(Cn1cccc(-c2nc(-c3ccc(F)cc3)no2)c1=O)NCc1ccccc1Br", "RP-LC retention time", 898],
  ["CCCCOc1ccc(S(=O)(=O)N2CCN(c3nc(C)cc(N4CCOCC4)n3)CC2)cc1", "RP-LC retention time", 818]
]}

----------
Catalogue of RP-LC retention time readings, one per entry.
Method notes: gradient 5% acetonitrile 3 min, to 50% in 2 min, to 85% in 15 min, held 3 min, 100 µL/min
Run parameters: column: Zorbax Extend-C18 2.1 x 50 mm; eluents: water / acetonitrile, 0.1% formic acid
Reported endpoint: RP-LC retention time (s)

{"columns": ["Compound", "Quantitative readout"],
 "data": [
  ["O=C(CN1CCCc2nc(C3CC3)ncc2C1=O)NCC1CC1", 638],
  ["Cc1cccc(-c2noc(CN3C(=O)COc4cc(Cl)ccc43)n2)c1", 1160],
  ["CCN(Cc1cn(C)nc1C)C(=O)c1cc2c(=O)n(CC(C)C)c3ccccc3n2n1", 864],
  ["CC(C)NC(=O)N1CCCC(Cn2c(C3CC3)nc3cccnc32)C1 (stereo not given)", 604],
  ["Cc1ccc2oc(=O)n(Cc3noc(C(=O)NCCC4=CCCCC4)n3)c2c1", 1090]
]}

----------
Catalogue of RP-LC retention time readings, one per entry.
Method notes: gradient 5% acetonitrile 3 min, to 50% in 2 min, to 85% in 15 min, held 3 min, 100 µL/min
Run parameters: column: Zorbax Extend-C18 2.1 x 50 mm; eluents: water / acetonitrile, 0.1% formic acid

{"columns": ["Compound", "RP-LC retention time, s"],
 "data": [
  ["CSc1ccc(-c2nc3ncccn3c2Nc2cccc(Cl)c2C)cc1", 968],
  ["O=C(c1cc(-c2ccncc2)n[nH]1)N1CCN(C(=O)C2(c3ccccc3)CC2)CC1", 590],
  ["CCOC(=O)c1nc(N(CC)c2ccc(CC)cc2)c2ccccc2n1", 1130],
  ["Cn1nc(CNC(=O)c2ccc(Br)o2)c2ccccc21", 795],
  ["COCCOC1CCC12CCN(C(=O)c1occc1C)CC2 (stereo not given)", 779],
  ["O=C(NC1CCCC1)c1nc(Cn2c(=O)oc3ccc(Cl)cc32)no1", 931],
  ["CC(C)CN1C(=O)CCc2cc(NS(=O)(=O)c3ccccc3)ccc21", 844],
  ["Cc1ccc(N2CCC(NC(=O)c3ccc(F)cc3)C2=O)cc1C (stereo not given)", 828],
  ["Cc1ccc(-n2nc(C)c3c(=O)n(CC(=O)NCc4ccccc4Cl)ccc32)cc1", 872],
  ["CCOC(=O)N1CCN(S(=O)(=O)c2ccc(C(=O)Nc3cc(C)no3)cc2)CC1", 736],
  ["CCC(=O)NC(C)c1nc(-c2ccc(C)cc2)no1 (stereo not given)", 777],
  ["Cn1nc(-c2nc(C3CC3)no2)c2c1CCN(C(=O)c1cc3c(s1)CCCC3)C2", 1010],
  ["CCCCOc1cccc(C(=O)N(Cc2ccc(Br)o2)C2CCS(=O)(=O)C2)c1 (stereo not given)", 1090],
  ["Cc1cccc2cc3cccc(C)c3nc12", 696],
  ["Cc1nn(CC(=O)NCCc2ccco2)c(=O)c2c(C)n(-c3ccccc3)nc12", 774],
  ["COc1ccccc1N1CCN(S(=O)(=O)c2cc(-c3nnc(C4CCC4)o3)co2)CC1", 1020],
  ["CC(C)CC(=O)Nc1ccc(-n2cnc(C(=O)N3CCN(c4ccccc4)CC3)c2)nc1", 819],
  ["O=C(Nc1ccc(F)cc1F)C1CCCN(S(=O)(=O)Cc2ccc(F)cc2)C1 (stereo not given)", 976],
  ["O=S(=O)(Nc1cccn2ncnc12)c1cccc(C(F)(F)F)c1", 804],
  ["O=S(=O)(NCC1(c2cccs2)CCCC1)c1cccnc1", 827]
]}
